targetOfAssay: KRAS G12S (Homo sapiens, UniProt P01116+P62937, G12S)
Sequence (P01116 1-169 isoform P01116-2 G12S limits assumed): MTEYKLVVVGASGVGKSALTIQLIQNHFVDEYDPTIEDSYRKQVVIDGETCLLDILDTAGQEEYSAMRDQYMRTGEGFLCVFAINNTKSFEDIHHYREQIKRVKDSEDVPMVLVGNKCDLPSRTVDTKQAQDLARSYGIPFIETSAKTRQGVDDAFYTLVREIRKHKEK
Sequence (P62937 whole entry): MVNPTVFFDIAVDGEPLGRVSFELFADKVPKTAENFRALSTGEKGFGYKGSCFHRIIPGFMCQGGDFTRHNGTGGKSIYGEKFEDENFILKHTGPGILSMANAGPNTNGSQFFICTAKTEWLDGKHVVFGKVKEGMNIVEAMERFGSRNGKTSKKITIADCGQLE
measurementDescription: Ras-Raf disruption / FRET / MOA assay (BRAF RBD)
Assay type: biochemical
conditionsUsed: Ras-Raf disruption, with Cyclophilin A; read-out: KRAS G12S FRET data IC50
pIC50: −log10 of the molar value.
parameterMeasured: pIC50

(Q) Fill in: pIC50 of CCn1c(-c2cccnc2[C@H](C)OC)c2c3cc(ccc31)-c1cc(O)cc(c1)C[C@H](NC(=O)[C@H](C(C)C)N(C)C(=O)[C@@H]1CCN(C(=O)[C@H]3CN3)C1)C(=O)N1CCC[C@H](N1)C(=O)OCC(C)(C)C2 (atropisomer, axis not shown) is ___
(A) 7.00 to 8.00

(Q) Fill in: pIC50 of `CCn1c(-c2cnccc2COC)c2c3cc(ccc31)-c1cccc(c1)C[C@H](NC(=O)[C@H](C(C)C)N(C)C(=O)CCN=C=NCc1c(OC)cccc1OC)C(=O)N1CCC[C@H](N1)C(=O)OCC(C)(C)C2` is ___
(A) 5.00 to 6.00

(Q) Fill in: pIC50 of `CCn1c(-c2cccnc2[C@H](C)OC)c2c3cc(ccc31)-c1cccc(c1)C[C@H](NC(=O)[C@H](C(C)C)N(C)C(=O)[C@H]1C[C@H](N=C=NCc3ccccc3OC)C1)C(=O)N1CCC[C@H](N1)C(=O)OCC(C)(C)C2` is ___
(A) 5.00 to 6.00

(Q) Fill in: pIC50 of `CCn1c(-c2cccnc2[C@H](C)OC)c2c3cc(ccc31)-c1cccc(c1)C[C@H](NC(=O)[C@H](C(C)C)N(C)C(=O)[C@H]1CCN(C(=O)[C@H]3CN3)C1)C(=O)N1CCC[C@H](N1)C(=O)OCC(C)(C)C2` is ___
(A) 5.00 to 6.00
